Cited source for all entries: paper PMC12004261

Target: CBD brain tissue homogenates (Homo sapiens, UniProt P10636)
Sequence (P10636 561-708 limits assumed): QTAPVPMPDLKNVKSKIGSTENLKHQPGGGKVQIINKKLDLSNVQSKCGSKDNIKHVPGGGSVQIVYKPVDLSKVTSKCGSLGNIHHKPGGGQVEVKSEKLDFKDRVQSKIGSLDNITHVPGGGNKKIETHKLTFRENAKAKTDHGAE
Quantity Measured: Kd (nM)

1. COc1ccc(NC(=O)c2cnc(N3CCN(c4ccccn4)CC3)nc2N)cc1 [M503-1619] : 94

###

Molecular target: PSP brain tissue homogenates (Homo sapiens)
Sequence (P10636 561-698 limits assumed): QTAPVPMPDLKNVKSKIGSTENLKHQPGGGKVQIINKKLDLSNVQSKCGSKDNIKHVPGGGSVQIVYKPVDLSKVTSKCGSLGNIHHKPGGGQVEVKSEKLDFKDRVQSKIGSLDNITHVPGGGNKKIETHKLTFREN
pKd: −log10 of the molar value.
Quantity Measured: pKd

1) COc1ccc(NC(=O)c2cnc(N3CCN(c4ccccn4)CC3)nc2N)cc1 [M503-1619] : 7.26

###

Target: PD brain tissue homogenates (Homo sapiens, UniProt P37840)
pKd: −log10 of the molar value.
Quantity Measured: pKd

1) COc1ccc(NC(=O)c2cnc(N3CCN(c4ccccn4)CC3)nc2N)cc1 [M503-1619] : 8.60
